Please go through the items and note down their Signal (% of Lc16Hc7).
- target: T1, human IL-13 R130Q variant (R110Q of the mature chain) (human, UniProt P35225 35-146, Biotinylated on amines (NHS-LC-biotin, 4:1) in ELISA, panning and competition assays. The letters are unchanged.)
- T1 construct: R130Q counts from Met 1 of the signal peptide, R110Q on the mature chain; Bought from Peprotech; also called IL-13 R110Q; b-R130Q
- T1 sequence (P35225 35-146 limits assumed, stated change not applied): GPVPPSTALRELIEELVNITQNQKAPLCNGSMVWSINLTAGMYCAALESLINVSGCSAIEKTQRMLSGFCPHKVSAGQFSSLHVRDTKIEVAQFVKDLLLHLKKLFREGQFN
- assay.remarks: single-point (10 nM) phage Fab ELISA on biotinylated IL-13 R130Q
Answers are plain numbers, in %.

Examples with answers:
response.value for Fab clone 1F12 (IL-13-62 library) (Fab, V domains shown, Fab on phage pIX) VH: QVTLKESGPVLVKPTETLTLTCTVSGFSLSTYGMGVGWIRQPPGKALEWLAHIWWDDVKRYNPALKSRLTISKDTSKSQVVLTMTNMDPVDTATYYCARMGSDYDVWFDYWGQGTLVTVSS VL: EIVLTQSPATLSLSPGERATLSCRASKSISKYLAWYQQKPGQAPRLLIYSGSTLQSGIPARFSGSGSGTDFTLTISSLEPEDFAVYYCQQHNHGPYTFGQGTKLEIK (field: Signal (% of Lc16Hc7)) = 100

response.value for Fab clone 1F05 (IL-13-62 library) (Fab, V domains shown, Fab on phage pIX) VH: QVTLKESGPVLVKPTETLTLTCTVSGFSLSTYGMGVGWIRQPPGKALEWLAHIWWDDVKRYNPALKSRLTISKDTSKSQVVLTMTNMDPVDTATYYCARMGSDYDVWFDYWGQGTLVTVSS VL: EIVLTQSPATLSLSPGERATLSCRASKSISKYLAWYQQKPGQAPRLLIYSGSTLQSGIPARFSGSGSGTDFTLTISSLEPEDFAVYYCQQHVGGPYTFGQGTKLEIK (field: Signal (% of Lc16Hc7)) = 144

Now, please, on to the next binder.
response.value for Fab clone 3A10 (IL-13-62 library) (Fab, V domains shown, Fab on phage pIX) VH: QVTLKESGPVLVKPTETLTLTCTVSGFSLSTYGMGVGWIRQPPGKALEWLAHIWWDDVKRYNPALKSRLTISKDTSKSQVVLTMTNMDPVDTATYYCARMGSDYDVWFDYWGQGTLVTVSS VL: EIVLTQSPATLSLSPGERATLSCRASKSISKYLAWYQQKPGQAPRLLIYSGSTLQSGIPARFSGSGSGTDFTLTISSLEPEDFAVYYCQQHVWGPYTFGQGTKLEIK (field: Signal (% of Lc16Hc7)) = 160
